# Tested on: NCI-H226
# Method: NCI tumour cell line growth inhibition, 48 h
Activity calls are given as the source filed them. Cut-off read from the data, not from the text of the source: active = GI50 up to about 1.1 µM and inactive = higher.
Reply using exactly one outcome from TRUE for active, FALSE for inactive

Use the examples below as a reference point.
CC(=O)OC(C)(C)/C=C/C(=O)[C@](C)(O)[C@H]1[C@H](O)C[C@@]2(C)[C@@H]3CC=C4[C@@H](C[C@H](O)C(=O)C4(C)C)[C@]3(CO)C(=O)C[C@]12C [CUCURBITACIN A]    TRUE
COc1cccc(/C=C2\N=C(Cl)OC2=O)c1O    FALSE
COC1OC(C)/C(=N/O)C2OC(C)(C)OC12 (stereo not drawn)    FALSE
CC1CC/C(=C\c2ccc(Cl)cc2)C2OC(N)=C(C#N)C(c3ccc(Cl)cc3)=C12 (stereo not drawn)    FALSE

Dear all, I need the recorded test outcome for Oc1c(CNCCCN2CCCC2)cc(Cl)c2cccnc12 , thank you.
FALSE

Dear all, I need the recorded test outcome for C=C=C(C(=O)OC)[S+]([O-])c1ccc([N+](=O)[O-])cc1[N+](=O)[O-] (stereo not drawn) , thank you.
FALSE

Dear all, I need the recorded test outcome for CN(C)c1ccc2c(c1)C(=O)N(OS(=O)(=O)c1ccc([N+](=O)[O-])cc1)C2=O , thank you.
FALSE

Dear all, I need the recorded test outcome for Sc1nnc(NNc2ccccc2)n1Nc1ccccc1 , thank you.
FALSE
